assayed-target: human orexin-2 receptor (Homo sapiens (Human))
Sequence (O43614 whole entry): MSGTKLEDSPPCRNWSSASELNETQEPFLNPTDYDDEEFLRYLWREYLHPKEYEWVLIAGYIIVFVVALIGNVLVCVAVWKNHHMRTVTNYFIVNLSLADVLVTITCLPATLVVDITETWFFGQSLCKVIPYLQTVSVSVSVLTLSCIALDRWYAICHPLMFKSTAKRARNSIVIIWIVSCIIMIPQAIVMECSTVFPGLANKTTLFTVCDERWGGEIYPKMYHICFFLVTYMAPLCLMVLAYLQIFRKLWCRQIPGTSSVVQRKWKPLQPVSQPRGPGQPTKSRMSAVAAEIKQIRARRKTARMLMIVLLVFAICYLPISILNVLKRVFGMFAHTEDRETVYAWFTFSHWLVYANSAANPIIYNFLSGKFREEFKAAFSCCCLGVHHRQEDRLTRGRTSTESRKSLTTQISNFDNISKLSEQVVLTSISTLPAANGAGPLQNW
assay-info: In vitro assay: intracellular calcium measurements (FLIPR), antagonistic activity
test-settings: CHO cells expressing human orexin-2 receptor, orexin-A agonist, geometric mean, read-out: IC50 Ox2
experimental-readout: IC50 (nM)

Worked examples, 2 compounds total:
C[C@@]1(c2nc3cc(C(F)(F)F)c(Cl)cc3[nH]2)CCCN1C(=O)c1c(F)cccc1-n1nccn1 [Ex. 5.133] ... 45
Cc1c(Cl)ccc2[nH]c([C@@H]3[C@@H](C)CCN3C(=O)c3c(F)cccc3-c3ccccc3)nc12 [Ex. 4.169] ... 892

a = C=C1CC(c2nc3c(C)c(C)ccc3[nH]2)N(C(=O)c2cc(C)sc2-c2ccc(C)c(C)c2)C1 (stereo not shown) [Ex. 6.77]
b = Cc1nc(C(=O)N2CCCC2c2nc3cc(C(F)(F)F)c(F)cc3[nH]2)c(-c2ccccc2)s1 (stereo not shown) [Ex. 1.135]
Response body: label of entry with the larger IC50; valid values a , b . Response format: the label of the selected entry.
b
